Where do the numbers come from? From PubChem BioAssay AID602285.

- Test System: Scavenger receptor class B member 1 (Mus musculus) (UniProt Q61009)
- Sequence (Q61009 whole entry, looked up): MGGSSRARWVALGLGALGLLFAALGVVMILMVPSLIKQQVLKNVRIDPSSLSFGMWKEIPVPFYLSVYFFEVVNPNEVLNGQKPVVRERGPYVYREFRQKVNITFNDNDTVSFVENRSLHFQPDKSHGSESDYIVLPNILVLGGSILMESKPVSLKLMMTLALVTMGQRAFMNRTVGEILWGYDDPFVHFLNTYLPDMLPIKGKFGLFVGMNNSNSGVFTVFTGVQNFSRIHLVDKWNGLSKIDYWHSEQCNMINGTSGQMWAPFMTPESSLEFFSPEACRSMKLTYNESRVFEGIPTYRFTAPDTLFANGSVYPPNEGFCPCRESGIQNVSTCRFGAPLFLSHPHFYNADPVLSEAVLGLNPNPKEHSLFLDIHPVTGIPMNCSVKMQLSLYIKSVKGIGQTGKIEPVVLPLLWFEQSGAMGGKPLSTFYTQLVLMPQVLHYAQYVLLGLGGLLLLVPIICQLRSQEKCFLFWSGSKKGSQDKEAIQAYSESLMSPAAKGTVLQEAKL
- Measurement Protocol: SR-BI mediated DiI-HDL lipid uptake blockers – ldlA[mSR-BI] CHO cells, fluorescence plate reader, dry powder, set 8, dose response (AID 602285)
- Stated Conditions: 3 h
Measured Metric: AC50

Structure As Smiles: C[C@@H]1CN([C@H](C)CO)C(=O)c2cc(NC(=O)Cc3cn(C)c4ccccc34)ccc2O[C@H]1CN(C)S(=O)(=O)c1cccs1
AC50: 2.36 µM

INPUT: Hi! What's the reported AC50 for `C[C@@H]1CN([C@H](C)CO)C(=O)c2cc(NS(=O)(=O)c3ccccc3)ccc2O[C@H]1CN(C)S(=O)(=O)c1ccc(Cl)cc1` on Scavenger receptor class B member 1 (Mus musculus) (UniProt Q61009)?
OUTPUT: 3.16 µM

INPUT: Any idea what AC50 came out for `C[C@@H]1CN([C@H](C)CO)C(=O)c2cc(NC(=O)Cc3cn(C)c4ccccc34)ccc2O[C@H]1CN(C)Cc1ccncc1` on Scavenger receptor class B member 1 (Mus musculus) (UniProt Q61009)?
OUTPUT: 1.3 µM
